Reported glycan array binding signal (z-score) by item:
target: GlcNAc(b1-3)Gal(b1-4)GlcNAc(b1-3)Gal(b1-4)GlcNAc(b1-3)Gal(b1-4)GlcNAc(b1-2)Man(a1-3)[GlcNAc(b1-3)Gal(b1-4)GlcNAc(b1-3)Gal(b1-4)GlcNAc(b1-3)Gal(b1-4)GlcNAc(b1-2)Man(a1-6)]Man(b1-4)GlcNAc(b1-4)[Fuc(a1-6)]GlcNAc; experiment: glycan array binding signal (z-score within array); higher = stronger binding; settings: glycan notation: IUPAC condensed, linker removed
Only a selection was taken, and the strongest signals are over-represented in it overall.
PROPERTY_NAME: glycan array binding signal (z-score)

INSERT INTO assay_data (binder, result) VALUES
  ('FliC (Clostridium difficile) (protein) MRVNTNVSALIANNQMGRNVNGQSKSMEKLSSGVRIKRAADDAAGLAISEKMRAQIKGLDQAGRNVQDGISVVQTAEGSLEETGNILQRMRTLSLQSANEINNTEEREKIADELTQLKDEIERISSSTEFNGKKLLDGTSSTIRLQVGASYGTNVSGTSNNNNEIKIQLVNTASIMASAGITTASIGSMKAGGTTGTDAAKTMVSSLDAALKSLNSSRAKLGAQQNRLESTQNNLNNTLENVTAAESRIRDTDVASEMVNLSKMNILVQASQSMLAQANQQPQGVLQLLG', -0.149),
  ('Mg1lysM (Mycosphaerella graminicola) (protein) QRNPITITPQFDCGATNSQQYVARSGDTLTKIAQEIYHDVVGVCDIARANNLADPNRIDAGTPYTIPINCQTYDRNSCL', -0.081),
  ('AFL5 (Aspergillus fumigatus), Q4WB00 (protein) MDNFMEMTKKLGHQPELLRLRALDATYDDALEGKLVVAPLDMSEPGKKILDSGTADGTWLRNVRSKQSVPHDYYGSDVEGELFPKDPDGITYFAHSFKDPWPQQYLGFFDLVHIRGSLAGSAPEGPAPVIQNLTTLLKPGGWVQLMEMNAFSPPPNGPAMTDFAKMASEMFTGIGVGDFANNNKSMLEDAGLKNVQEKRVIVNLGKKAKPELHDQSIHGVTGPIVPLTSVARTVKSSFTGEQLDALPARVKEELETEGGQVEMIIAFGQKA', 1.47);
